The values you see were collected from patent US12152048B2.

experiment: Stability in rat plasma; details: 37° C., 15 minutes
Quantity: Percentage of the compound remaining in plasma (%)

See these solved cases before continuing.
[[record]]
molecule = "CC(C)(C)OP(=O)(OCOc1ccc([N+](=O)[O-])c2cccnc12)OC(C)(C)C"
unit_descriptor = "%"
recorded_result = 93.4

[[record]]
molecule = "CCC(C)C(NC(=O)OCOc1ccc([N+](=O)[O-])c2cccnc12)C(=O)OC (stereo not shown)"
unit_descriptor = "%"
recorded_result = 48.9

[[record]]
molecule = "COC(=O)CN(C)C(=O)Oc1ccc([N+](=O)[O-])c2cccnc12"
unit_descriptor = "%"
recorded_result = 0.1


A: CCC(CC)C(=O)OCOc1ccc([N+](=O)[O-])c2cccnc12
B: CN1CCN(C(=O)OCOc2ccc([N+](=O)[O-])c3cccnc23)CC1
Request: When A and B are compared, which has the higher number for Percentage of the compound remaining in plasma? Answer = label.
Result: B

I: CCC(CC)C(=O)OC(C)Oc1ccc([N+](=O)[O-])c2cccnc12 (stereo not shown)
II: COC(=O)[C@H](Cc1ccccc1)NC(=O)OCOc1ccc([N+](=O)[O-])c2cccnc12
III: CN(CC(O)CO)C(=O)OCOc1ccc([N+](=O)[O-])c2cccnc12 (stereo not shown)
Request: Arrange the 3 entries by Percentage of the compound remaining in plasma so the values rise. Provide the labels, sequenced as the question asks.
Result: II, I, III

1: O=C(OCOc1ccc([N+](=O)[O-])c2cccnc12)N1CCOCC1
2: CCC(C)C(C(=O)OC)N(C)C(=O)OCOc1ccc([N+](=O)[O-])c2cccnc12 (stereo not shown)
Request: When 1 and 2 are compared, which has the higher number for Percentage of the compound remaining in plasma? Answer = label.
Result: 1

I: C[C@@H]1CN(C(=O)OCOc2ccc([N+](=O)[O-])c3cccnc23)C[C@H](C)O1
II: CC(C)(C)C(=O)OCOc1ccc([N+](=O)[O-])c2cccnc12 [Compound 4, (5-nitroquinolin-8-yloxy)methyl pivalate]
Request: Given the two records I and II , choose the one whose Percentage of the compound remaining in plasma value is lower. Answer = label.
Result: II

====

assay: Stability in dog liver microsome; conditions: without coenzyme, 2 μM, 37° C., 30 minutes
Quantity: Percentage of the compound remaining in dog liver microsome (%)

[[record]]
compound = "CC(=O)N(C)CC(=O)OCc1cccnc1N(C)C(=O)OCOc1ccc([N+](=O)[O-])c2cccnc12"
unit_descriptor = "%"
recorded_result = 93.36


I: COC(=O)CNC(=O)OCOc1ccc([N+](=O)[O-])c2cccnc12
II: CCCOC(=O)N1CCC[C@H]1C(=O)OCOc1ccc([N+](=O)[O-])c2cccnc12
III: COC(=O)CCCCC(=O)OCOc1ccc([N+](=O)[O-])c2cccnc12
IV: CCC(=O)OCOc1ccc([N+](=O)[O-])c2cccnc12
Request: Hey, quick one: sort these by Percentage of the compound remaining in dog liver microsome, largest value first please. Provide the labels, sequenced as the question asks.
Result: I, II, IV, III

A: CN(CC(O)CO)C(=O)OCOc1ccc([N+](=O)[O-])c2cccnc12 (centres unmarked)
B: O=C(CCCCCCCO)OCOc1ccc([N+](=O)[O-])c2cccnc12
Request: When A and B are compared, which has the higher number for Percentage of the compound remaining in dog liver microsome? Answer = label.
Result: A

====

assay: Stability in monkey plasma; assay type: in vitro ADME; conditions: 37° C., 15 minutes
Quantity: Percentage of the compound remaining in plasma (%)

See these solved cases before continuing.
[[record]]
molecule = "O=C(OCOc1ccc([N+](=O)[O-])c2cccnc12)N1CCOCC1"
recorded_result = 96.5

[[record]]
molecule = "O=[N+]([O-])c1ccc(O)c2ncccc12"
recorded_result = 101.2

[[record]]
molecule = "CCC(CC)C(=O)OC(C)Oc1ccc([N+](=O)[O-])c2cccnc12 (stereo not drawn)"
recorded_result = 96.4

[[record]]
molecule = "CC(C)(C)C(=O)OCOc1ccc([N+](=O)[O-])c2cccnc12 [Compound 4, (5-nitroquinolin-8-yloxy)methyl pivalate]"
recorded_result = 4.8


a: CCC(CC)C(=O)OCOc1ccc([N+](=O)[O-])c2cccnc12
b: CN1CCN(C(=O)OCOc2ccc([N+](=O)[O-])c3cccnc23)CC1
Request: Given the two records a and b , choose the one whose Percentage of the compound remaining in plasma value is lower. Answer = label.
Result: a

====

assay: Stability in dog plasma; type: in vitro ADME; conditions: 37° C., 60 minutes
Quantity: Percentage of the compound remaining in plasma (%)

1: CCC(C)C(NC(=O)OCOc1ccc([N+](=O)[O-])c2cccnc12)C(=O)OC (stereo not drawn) [Compound 55]
2: CC(C)(C)C(=O)OCOc1ccc([N+](=O)[O-])c2cccnc12 [Compound 4, (5-nitroquinolin-8-yloxy)methyl pivalate]
Request: When 1 and 2 are compared, which has the higher number for Percentage of the compound remaining in plasma? Answer = label.
Result: 1

====

assay: Stability in dog plasma; format: in vitro ADME; conditions: 37° C., 120 minutes
Quantity: Percentage of the compound remaining in plasma (%)

[[record]]
molecule = "COC(=O)[C@H](Cc1ccccc1)NC(=O)OCOc1ccc([N+](=O)[O-])c2cccnc12 [Compound 58]"
unit_descriptor = "%"
recorded_result = 49.8

[[record]]
molecule = "C[C@@H]1CN(C(=O)OCOc2ccc([N+](=O)[O-])c3cccnc23)C[C@H](C)O1 [Compound 59]"
unit_descriptor = "%"
recorded_result = 99.9

[[record]]
molecule = "CCC(NC(=O)OCOc1ccc([N+](=O)[O-])c2cccnc12)C(=O)OC (stereo not drawn) [Compound 54]"
unit_descriptor = "%"
recorded_result = 74.7

[[record]]
molecule = "CN1CCN(C(=O)OCOc2ccc([N+](=O)[O-])c3cccnc23)CC1 [Compound 6]"
unit_descriptor = "%"
recorded_result = 105.9

[[record]]
molecule = "CC(C)OC(=O)[C@H](C)NP(=O)(OCOc1ccc([N+](=O)[O-])c2cccnc12)Oc1ccccc1 (stereo partly drawn) [Compound 75]"
unit_descriptor = "%"
recorded_result = 67.8

[[record]]
molecule = "O=C(OCOc1ccc([N+](=O)[O-])c2cccnc12)N1CCOCC1 [Compound 7]"
unit_descriptor = "%"
recorded_result = 101.8


I: CC(C)(C)C(=O)OCOc1ccc([N+](=O)[O-])c2cccnc12 [Compound 4, (5-nitroquinolin-8-yloxy)methyl pivalate]
II: CCC(C)C(NC(=O)OCOc1ccc([N+](=O)[O-])c2cccnc12)C(=O)OC (stereo not drawn) [Compound 55]
Request: Given the two records I and II , choose the one whose Percentage of the compound remaining in plasma value is lower. Answer = label.
Result: I
(I: 18.2%, II: 70.1%)

A: CCC(CC)C(=O)OC(C)Oc1ccc([N+](=O)[O-])c2cccnc12 (stereo not drawn) [Compound 51]
B: CCC(CC)C(=O)OCOc1ccc([N+](=O)[O-])c2cccnc12 [Compound 5]
Request: Given the two records A and B , choose the one whose Percentage of the compound remaining in plasma value is lower. Answer = label.
Result: B

P: O=[N+]([O-])c1ccc(O)c2ncccc12 [Nitroxoline]
Q: COC(=O)CNC(=O)OCOc1ccc([N+](=O)[O-])c2cccnc12 [Compound 53]
Request: When P and Q are compared, which has the higher number for Percentage of the compound remaining in plasma? Answer = label.
Result: P
(P: 98.4%, Q: 67.3%)

====

test: Stability in human liver microsome; settings: with coenzyme, 2 μM, 37° C., 30 minutes
Quantity: Percentage of the compound remaining in human liver microsome (%)

See these solved cases before continuing.
[[record]]
molecule = "O=C(CCCCCCCO)OCOc1ccc([N+](=O)[O-])c2cccnc12"
recorded_result = 0.01

[[record]]
molecule = "CC(C)C(=O)OCOc1ccc([N+](=O)[O-])c2cccnc12"
recorded_result = 0.05

[[record]]
molecule = "CN(C)C(=O)Oc1ccc([N+](=O)[O-])c2cccnc12 [Compound 78, 5-nitroquinolin-8-yl dimethylcarbamate]"
recorded_result = 14.46


A: CCC(C)C(NC(=O)OCOc1ccc([N+](=O)[O-])c2cccnc12)C(=O)OC (stereo not shown)
B: CC(C)(C)OC(=O)NCCCCCCC(=O)OCOc1ccc([N+](=O)[O-])c2cccnc12
C: CC(=O)N(C)CC(=O)OCc1cccnc1N(C)C(=O)OCOc1ccc([N+](=O)[O-])c2cccnc12
Request: Arrange the 3 entries by Percentage of the compound remaining in human liver microsome so the values rise. Provide the labels, sequenced as the question asks.
Result: B, C, A

====

experiment: Determination of water solubility in phosphate buffer; assay type: physicochemical; details: aqueous buffer, thermodynamic from solid; phosphate buffer pH 6.8, room temperature, 24 hours
Quantity: solubility at 24 h (µg/mL)

[[record]]
molecule = "CC(C)C(=O)N1CCC[C@H]1C(=O)OCOc1ccc([N+](=O)[O-])c2cccnc12 [Compound 20]"
quantity = "solubility at 24 h"
recorded_result = 962


P: CC(C)(C)OP(=O)(OCOc1ccc([N+](=O)[O-])c2cccnc12)OC(C)(C)C [Compound 70]
Q: CCC(CC)C(=O)OCOc1ccc([N+](=O)[O-])c2cccnc12 [Compound 5]
R: CCC(CC)C(=O)OC(C)Oc1ccc([N+](=O)[O-])c2cccnc12 (stereo not shown) [Compound 51]
Request: Arrange the 3 entries by solubility at 24 h so the values rise. Provide the labels, sequenced as the question asks.
Result: R, Q, P
